Data provenance: paper PMC3115942

- assay details: Pharmacokinetics in mouse plasma
- Format: in vivo
- setup conditions: male, C57BL, mouse, plasma; IV, 5 mg/kg, 60 min; read-out: blood concentration
recorded metric: concentration at 60 min (ng/mL)
Please give a number only; it is taken to be in ng/mL.

INPUT: Answer with reported concentration at 60 min of Cc1cccn2cc(-c3ccc(NC(=O)c4ccccc4Br)cc3)nc12 [MS-0022]
OUTPUT: 620

---

- assay details: Dose tolerance in mice
- Assay type: in vivo
- setup conditions: male, C57BL, mouse, in vivo, intraperitoneal, 200 mg/kg; mice
recorded metric: MTD at 5 days

INPUT: Quote MTD at 5 days reported for "Cc1cccn2cc(-c3ccc(NC(=O)c4ccccc4Br)cc3)nc12" please.
OUTPUT: > 200 mg/kg
